The entries below come with measured IC50 values attached.
# Test system: ecotropic pseudo-typed lentiviral particles (luciferase) in PM1-mCat1 cells
# assay_overview: Luciferase-based viral integration assay using PM1-mCat1 cells
# protocol_conditions: Human immunodeficiency virus 1, read-out: IC50 (in µM), viral integration assay
result_type: IC50 (µM)

>>> recorded_value("Cc1oc(-c2ccccc2)nc1CN1CC(C(=O)N2CCCCC2)Oc2ccccc21 (stereo not drawn) [T6329376]")
4.83
>>> recorded_value("COC(=O)c1ccc(C(=O)Nc2ncc(C)s2)cc1 [T5650116, COC(=O)C1=CC=C(C=C1)C(=O)NC1=NC=C(C)S1]")
2.79
>>> recorded_value("Cc1ccccc1-n1nnnc1SCc1nnc(-c2cccs2)o1 [T5805638]")
1.45

* * *

# System: ecotropic pseudo-typed lentiviral particles (luciferase) in PM1-mCat1 cells
# assay_overview: Luciferase-based viral integration assay using PM1-mCat1 cells
# protocol_conditions: Human immunodeficiency virus 1, read-out: IC50 (in µM), viral integration assay
result_type: IC50 (µM)

>>> recorded_value("CCNC1=NN=C(c2cc(C)n(C3CC3)c2C)CS1")
1.05
>>> recorded_value("CN(C1CCCCCC1)S(=O)(=O)c1cccc(C#N)c1")
2.24
>>> recorded_value("Cc1ccc(S(=O)(=O)N2CCOCC2)cc1C(=O)Nc1ccccc1N1CCCC1")
8.26
>>> recorded_value("CC(=O)c1ccc(NC(=O)CNc2ccccc2-c2ccccc2)cc1")
7.85
>>> recorded_value("O=C(COc1ccccc1-c1ccccc1)NCc1ccccc1Cn1cccn1")
6.78
>>> recorded_value("COc1ccccc1N1CCN(C(=O)c2cc(Cl)ccc2O)CC1")
3.89
>>> recorded_value("C=CCOC(=O)C1=C(C)NC(=S)NC1c1ccc(C(C)C)cc1 (centres unmarked)")
4.37
>>> recorded_value("CC(C)CCn1cnc2c1c(=O)n(CC(=O)NC(C)C)c(=O)n2Cc1ccccc1")
9.06
>>> recorded_value("Cc1ccc(F)c(NC(=O)c2ccc(OC(F)F)cc2)c1")
1.77
>>> recorded_value("O=C(CSc1nc2ccccc2c(=O)n1Cc1ccco1)N1CCN(c2ccccc2)CC1")
1.72
>>> recorded_value("O=C(Nc1ccccc1N1CCCC1)c1cc(S(=O)(=O)N2CCOCC2)ccc1F")
2.86
>>> recorded_value("CC1CCN(c2nc(CN3CCOCC3)nc3scc(-c4cccs4)c23)CC1")
2
>>> recorded_value("COc1ccc(S(=O)(=O)N(Cc2cccc(C(F)(F)F)c2)c2ccccc2OC)cc1")
4.11
>>> recorded_value("CC(C)CCn1cnc2c1c(=O)n(CC(=O)NC1CC1)c(=O)n2Cc1ccccc1")
4.64

Values compiled from paper PMC7290285.
